- assayed-system: acetylcholine receptor
- method-summary: SPR, peptide at 10 µM on acetylcholine receptor
endpoint: Binding affinity (RU)

binder: RQLQK [5mer-366]
Binding affinity (RU): 52

1: RLFTK [5mer-60]
2: KRVRK [5mer-363]
Between 1 and 2 , which one shows the larger Binding affinity (RU) value? Please indicate the selected item by its label.
1
